Data provenance is patent US20220324939A1.

This listing pairs binders with measured % tetramer in Ag+ gate (MAGE-A4).
Experimental System: T1, soluble HLA-A2 MAGE-A4 (…) tetramer (human)
T1 construct: Bought tetramer reagent; also called MAGE-A4/HLA tetramer reagent; HLA-A02:01 MAGE-A4 tetramer
Method Notes: flow cytometry, HLA-A2 MAGE-A4 (…) tetramer staining of CHO cells transfected with the TCR
Report as a plain number; the unit % is understood.

Binder: PN45460 (TCR, V domains shown, full-length chains on transfected CHO cells; also called TCR No. 49) V domain 1: GNSVTQMEGPVTLSEEAFLTINCTYTATGYPSLFWYVQYPGEGLQLLLKATKADDKGSNKGFEATYRKETTSFHLEKGSVQVSDSAVYFCALSDTRDDKIIFGKGTRLHILP V domain 2: EAQVTQSPRYLITVTGKKLTVTCSQNMNHEYMSWYRQDPGLGLRQIYYSMNVEVTDKGDVPEGYKVSRKEKRNFPLILESPSPNQTSLYFCASSPGTGGFSPLHFGNGTRLTVT
% tetramer in Ag+ gate (MAGE-A4) (%): 34.7

(Q) GET /values?readout=% tetramer in Ag+ gate (MAGE-A4)&item= PN45584 (TCR, V domains shown, stained with anti-mouse TCR constant region H57-597; full-length chains on transfected CHO cells; also called TCR No. 43) V domain 1: AQKITQTQPGMFVQEKEAVTLDCTYDTSDPSYGLFWYKQPSSGEMIFLIYQGSYDEQNATEGRYSLNFQKARKSANLVISASQLGDSAMYFCAMREGPGSGNTGKLIFGQGTTLQVKP V domain 2: NAGVTQTPKFRILKIGQSMTLQCAQDMNHNYMYWYRQDPGMGLKLIYYSVGAGITDKGEVPNGYNVSRSTTEYFPLRLELAAPSQTSVYFCASSYSEWQNYGYTFGSGTRLTVV
(A) 69.1

(Q) Entry to check: PN45539 (TCR, V domains shown, stained with anti-mouse TCR constant region H57-597; full-length chains on transfected CHO cells; also called TCR No. 41) V domain 1: DAKTTQPPSMDCAEGRAANLPCNHSTISGNEYVYWYRQIHSQGPQYIIHGLKNNETNEMASLIITEDRKSSTLILPHATLRDTAVYYCIVRPYNAGNNRKLIWGLGTSLAVNP V domain 2: DVKVTQSSRYLVKRTGEKVFLECVQDMDHENMFWYRQDPGLGLRLIYFSYDVKMKEKGDIPEGYSVSREKKERFSLILESASTNQTSMYLCASSFEGGYYGYTFGSGTRLTVV
(A) 59.8
